Examples of compounds with documented log10 of IC50 follow.
Assayed Target: purified bovine brain tubulin (Bos taurus, UniProt P81947+Q6B856)
Construct: purified bovine brain tubulin; from tissue; host or cells: bovine brain
Sequence (Q6B856 whole entry): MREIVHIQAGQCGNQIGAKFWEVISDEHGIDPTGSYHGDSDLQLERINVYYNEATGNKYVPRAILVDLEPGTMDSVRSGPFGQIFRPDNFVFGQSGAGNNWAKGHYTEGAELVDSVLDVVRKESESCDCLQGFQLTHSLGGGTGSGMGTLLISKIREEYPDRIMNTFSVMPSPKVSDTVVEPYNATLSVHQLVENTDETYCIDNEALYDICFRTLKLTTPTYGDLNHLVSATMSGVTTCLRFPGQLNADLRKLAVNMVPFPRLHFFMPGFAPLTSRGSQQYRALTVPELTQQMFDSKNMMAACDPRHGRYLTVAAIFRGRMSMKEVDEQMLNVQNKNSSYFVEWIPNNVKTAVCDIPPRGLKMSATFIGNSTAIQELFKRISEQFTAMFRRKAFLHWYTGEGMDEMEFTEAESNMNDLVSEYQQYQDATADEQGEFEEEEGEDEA
Sequence (P81947 whole entry): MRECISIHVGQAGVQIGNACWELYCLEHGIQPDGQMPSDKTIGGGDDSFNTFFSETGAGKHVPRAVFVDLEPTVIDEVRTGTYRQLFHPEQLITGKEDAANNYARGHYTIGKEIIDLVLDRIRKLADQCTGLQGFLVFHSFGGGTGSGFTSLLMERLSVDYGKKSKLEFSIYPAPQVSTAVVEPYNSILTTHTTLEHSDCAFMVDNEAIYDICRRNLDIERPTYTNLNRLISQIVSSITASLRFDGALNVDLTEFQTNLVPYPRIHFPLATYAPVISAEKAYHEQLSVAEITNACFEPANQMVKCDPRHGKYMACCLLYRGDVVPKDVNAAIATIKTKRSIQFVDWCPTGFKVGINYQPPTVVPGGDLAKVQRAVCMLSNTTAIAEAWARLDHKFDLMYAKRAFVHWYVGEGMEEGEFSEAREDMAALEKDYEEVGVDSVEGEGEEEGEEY
Protocol Summary: Inhibition of tubulin polymerization (turbidimetric, cell-free)
Format: biochemical
Condition Details: 10 μM tubulin; extent of polymerization after 20 min at 30° C.; read-out: Inhibition of tubulin polymerization IC50 (μM) ± SD
Response schema: value (number) is log10 of IC50 in units of µM.

Prompt line: Using the record for COc1ccc2c(c1CO)CCCC=C2c1cc(OC)c(OC)c(OC)c1 [Compound 48] , report its log10 of IC50.
Response line: -0.20

Prompt line: Would you mind telling me what log10 of IC50 value was observed for COc1cc(C2=CC(O)CCc3c2ccc(OC)c3OC)cc(OC)c1OC (stereo not shown) [Compound 57] ?
Response line: 0.58

Prompt line: Param item = CCOC(=O)c1c(OC)ccc2c1CCCC=C2c1cc(OC)c(OC)c(OC)c1 [Compound 47] ; retrieve measured log10 of IC50.
Response line: 0.00

Prompt line: Quick one: log10 of IC50 of COc1ccc2c(c1C#N)CCC=C2c1cc(OC)c(OC)c(OC)c1 [Compound 39] ?
Response line: -0.43

Prompt line: Which log10 of IC50 is listed for COc1ccc2c(c1C)CCCC=C2c1cc(OC)c(OC)c(OC)c1 [Compound 9] ?
Response line: 0.20

Prompt line: # log10 of IC50 lookup, item COc1ccc2c(c1O)CCCC(=O)C2(O)c1cc(OC)c(OC)c(OC)c1 (stereo not shown) [Compound 24]
Response line: 0.08

Prompt line: Reported log10 of IC50, compound COc1ccc2c(c1C=O)CCCC=C2c1cc(OC)c(OC)c(OC)c1 [Compound 40] : ____
Response line: 0.51

Prompt line: What value of measured log10 of IC50 is listed for COc1cc(C2=CC=CCc3c2ccc(OC)c3OP(=O)([O-])[O-])cc(OC)c1OC.[Na+].[Na+] [Compound 89, phosphate] ?
Response line: 1.20

Prompt line: # log10 of IC50 lookup, item COc1ccc2c(c1C#N)CCCC=C2c1cc(OC)c(OC)c(OC)c1 [Compound 38]
Response line: 0.04

Prompt line: Which measured log10 of IC50 value corresponds to COc1ccc2c(c1O)CC=CC=C2c1cc(OC)c(OC)c(OC)c1 [Compound 88] ?
Response line: -0.32

New cases:
Prompt line: Look up log10 of IC50 for this compound: COc1ccc2c(c1C)CCCC(Br)=C2c1cc(OC)c(OC)c(OC)c1 [Compound 34]
Response line: 0.69

Prompt line: Any idea what its log10 of IC50 is? The compound is COc1ccc2c(c1O)CCCC1=C2c2cc(OC)c(OC)c(OC)c2C1=O [Compound 91]
Response line: 0.62

Prompt line: Returns the measured log10 of IC50 for the input compound. Input: COc1ccc2c(c1O)CCCC(Br)=C2c1cc(OC)c(OC)c(OC)c1 [Compound 33]
Response line: -0.41

----------
System: tubulin
Protocol Summary: Colchicine binding assay (inhibition of [3H]colchicine binding to tubulin)
Condition Details: compound at 5 μM; 1.0 μM tubulin, 5.0 μM [3H]colchicine
Experimental: Colchicine Binding Assay. Inhibition of [^3H]colchicine binding to tubulin was measured in 0.1 mL reaction mixtures, each containing 1.0 μM tubulin, 5.0 μM [^3H]colchicine (Perkin-Elmer), 5% (v/v) dimethyl sulfoxide, […], and components that stabilize the colchicine binding activity of tubulin (1.0 M monosodium glutamate [adjusted to pH 6.6 with HCl in a 2.0 M stock solution], 0.5 mg/mL bovine serum albumin, 0.1 M glucose-1-phosphate, 1.0 mM MgCl2, and 1.0 mM GTP). […]
// values below are reported % Inhibition of colchicine binding ± SD

Sample records with % Inhibition of colchicine binding ± SD:
Prompt line: Any idea what its % Inhibition of colchicine binding ± SD is? The compound is `COc1ccc2c(c1O)CCCC1=C2c2cc(OC)c(OC)c(OC)c2C1=O`
Response line: 45 ± 4 (5 μM) %

Prompt line: Which % Inhibition of colchicine binding ± SD reading was recorded for the compound `COc1ccc2c(c1O)CCCC(Br)=C2c1cc(OC)c(OC)c(OC)c1` ?
Response line: 88 ± 1 (5 μM) %

Prompt line: Please look up its % Inhibition of colchicine binding ± SD: `COc1ccc2c(c1C#N)CCCC=C2c1cc(OC)c(OC)c(OC)c1`
Response line: 62 ± 0.7 (5 μM) %

Prompt line: Quick check: % Inhibition of colchicine binding ± SD of `COc1ccc2c(c1C#N)CCC=C2c1cc(OC)c(OC)c(OC)c1` ?
Response line: 73 ± 0.6 (5 μM) %

More entries:
Prompt line: // lookup % Inhibition of colchicine binding ± SD for COc1cc(C2=CC(O)CCc3c2ccc(OC)c3OC)cc(OC)c1OC (stereo not drawn)
Response line: 28 ± 4 (5 μM) %

Prompt line: Which measured % Inhibition of colchicine binding ± SD value corresponds to `COc1ccc2c(c1O)CC=CC=C2c1cc(OC)c(OC)c(OC)c1` ?
Response line: 95 ± 0.8%

Prompt line: Any idea what its % Inhibition of colchicine binding ± SD is? The compound is `COc1cc(C2=CC=CCc3c2ccc(OC)c3OP(=O)([O-])[O-])cc(OC)c1OC.[Na+].[Na+]`
Response line: 45 ± 2 (5 μM) %

Prompt line: Sample COc1ccc2c(c1O)CCCC(O)C2(O)c1cc(OC)c(OC)c(OC)c1 (stereo not drawn) — what was its % Inhibition of colchicine binding ± SD?
Response line: 0 (5 μM) %

Prompt line: Which % Inhibition of colchicine binding ± SD is listed for COc1ccc2c(c1O)CCCC=C2c1cc(OC)c(OC)c(OC)c1 [KGP18, reference compound] ?
Response line: 95 ± 0.5%

Prompt line: Which % Inhibition of colchicine binding ± SD is reported for this compound? `COc1ccc2c(c1C=O)CCCC=C2c1cc(OC)c(OC)c(OC)c1`
Response line: 61 ± 3 (5 μM) %

Prompt line: Find the recorded % Inhibition of colchicine binding ± SD belonging to `COc1ccc2c(c1C)CCCC=C2c1cc(OC)c(OC)c(OC)c1` and report it.
Response line: 65 ± 0.6 (5 μM) %

Prompt line: Field request: % Inhibition of colchicine binding ± SD | item: `CCOC(=O)c1c(OC)ccc2c1CCCC=C2c1cc(OC)c(OC)c(OC)c1`
Response line: 47 ± 1 (5 μM) %

----------
compounds and their reported % Inhibition of colchicine binding ± SD
Test system: tubulin
Protocol Summary: Colchicine binding assay (inhibition of [3H]colchicine binding to tubulin)
Condition Details: compound at 5 μM; 1.0 μM tubulin, 5.0 μM [3H]colchicine

Past entries and their recorded results:
Prompt line: Can you share its % Inhibition of colchicine binding ± SD? I mean this compound: COc1ccc2c(c1O)CCCC(=O)C2(O)c1cc(OC)c(OC)c(OC)c1 (centres unmarked)
Response line: 72 ± 2 (5 μM) %

Prompt line: Consider the compound COc1cc(C2CCc3c(ccc(OC)c3OC)C(=O)C2)cc(OC)c1OC (centres unmarked) and give its measured % Inhibition of colchicine binding ± SD.
Response line: 0 (5 μM) %

More entries:
Prompt line: What measured % Inhibition of colchicine binding ± SD goes with COc1ccc2c(c1O)CCC(NC(C)=O)C=C2c1cc(OC)c(OC)c(OC)c1 (centres unmarked) ?
Response line: 0.4 ± 0.6 (5 μM) %

Prompt line: Consider the compound shown here: COc1cc(C2(O)C=CCCc3c2ccc(OC)c3OC)cc(OC)c1OC (centres unmarked) What is its recorded % Inhibition of colchicine binding ± SD?
Response line: 0 (5 μM) %

Prompt line: So what's the measured % Inhibition of colchicine binding ± SD for this one? `COc1ccc2c(c1CO)CCCC=C2c1cc(OC)c(OC)c(OC)c1`
Response line: 76 ± 2 (5 μM) %
